Method description: physchem
Test context: octan-1-ol/water, pH 7.4, LogD7.4
Parameter: logD. Scope: all listed entries.
Recorded metric: logD

In [3]: df
Out[3]:
                                   compound  value
0      O=C(C(=O)c1cc(Br)ccc1O)c1cc(Br)ccc1O   3.85
1  Cc1ccc(NC(=O)N2CCN(C[C@@H]3CCCN(C4CC4)C3)CC2)cc1Cl   3.37
2  C[C@@H](Oc1cccc2ncnc(Nc3ccc4c(cnn4Cc4cscn4)c3)c12)C(=O)N1CCOCC1   2.81
3  COCCNCc1ccc(CCNC[C@H](O)c2ccc(O)c3[nH]c(=O)sc23)cc1  -0.54
4  CS(=O)(=O)c1cccc(Nc2nccc(N(CC#N)c3c(Cl)ccc4c3OCO4)n2)c1   3.16
5  CCCSc1nc(N2CCCCC2C(=O)O)ccc1C(=O)NC1CCCCC1 (centres undefined)   1.36
6  CC(C)(C(=O)c1cccnc1)c1cccnc1 [METYRAPONE]   1.45
7  Cc1cn(C2CCCN(Cc3cccc(Oc4ccc(Cl)cc4)c3)C2)c(=O)[nH]c1=O (centres undefined)   3.38
8  CC(C)Cn1cnc(-c2ccccc2)c1-c1nc2c(N)ncnc2s1   3.72
